test target: human NMDA receptor GluN1-GluN2A (Homo sapiens, UniProt Q05586+Q12879)
Construct: expressed in transfected cells; host or cells: CHO
Sequence (Q12879 23-1464, other chains not shown): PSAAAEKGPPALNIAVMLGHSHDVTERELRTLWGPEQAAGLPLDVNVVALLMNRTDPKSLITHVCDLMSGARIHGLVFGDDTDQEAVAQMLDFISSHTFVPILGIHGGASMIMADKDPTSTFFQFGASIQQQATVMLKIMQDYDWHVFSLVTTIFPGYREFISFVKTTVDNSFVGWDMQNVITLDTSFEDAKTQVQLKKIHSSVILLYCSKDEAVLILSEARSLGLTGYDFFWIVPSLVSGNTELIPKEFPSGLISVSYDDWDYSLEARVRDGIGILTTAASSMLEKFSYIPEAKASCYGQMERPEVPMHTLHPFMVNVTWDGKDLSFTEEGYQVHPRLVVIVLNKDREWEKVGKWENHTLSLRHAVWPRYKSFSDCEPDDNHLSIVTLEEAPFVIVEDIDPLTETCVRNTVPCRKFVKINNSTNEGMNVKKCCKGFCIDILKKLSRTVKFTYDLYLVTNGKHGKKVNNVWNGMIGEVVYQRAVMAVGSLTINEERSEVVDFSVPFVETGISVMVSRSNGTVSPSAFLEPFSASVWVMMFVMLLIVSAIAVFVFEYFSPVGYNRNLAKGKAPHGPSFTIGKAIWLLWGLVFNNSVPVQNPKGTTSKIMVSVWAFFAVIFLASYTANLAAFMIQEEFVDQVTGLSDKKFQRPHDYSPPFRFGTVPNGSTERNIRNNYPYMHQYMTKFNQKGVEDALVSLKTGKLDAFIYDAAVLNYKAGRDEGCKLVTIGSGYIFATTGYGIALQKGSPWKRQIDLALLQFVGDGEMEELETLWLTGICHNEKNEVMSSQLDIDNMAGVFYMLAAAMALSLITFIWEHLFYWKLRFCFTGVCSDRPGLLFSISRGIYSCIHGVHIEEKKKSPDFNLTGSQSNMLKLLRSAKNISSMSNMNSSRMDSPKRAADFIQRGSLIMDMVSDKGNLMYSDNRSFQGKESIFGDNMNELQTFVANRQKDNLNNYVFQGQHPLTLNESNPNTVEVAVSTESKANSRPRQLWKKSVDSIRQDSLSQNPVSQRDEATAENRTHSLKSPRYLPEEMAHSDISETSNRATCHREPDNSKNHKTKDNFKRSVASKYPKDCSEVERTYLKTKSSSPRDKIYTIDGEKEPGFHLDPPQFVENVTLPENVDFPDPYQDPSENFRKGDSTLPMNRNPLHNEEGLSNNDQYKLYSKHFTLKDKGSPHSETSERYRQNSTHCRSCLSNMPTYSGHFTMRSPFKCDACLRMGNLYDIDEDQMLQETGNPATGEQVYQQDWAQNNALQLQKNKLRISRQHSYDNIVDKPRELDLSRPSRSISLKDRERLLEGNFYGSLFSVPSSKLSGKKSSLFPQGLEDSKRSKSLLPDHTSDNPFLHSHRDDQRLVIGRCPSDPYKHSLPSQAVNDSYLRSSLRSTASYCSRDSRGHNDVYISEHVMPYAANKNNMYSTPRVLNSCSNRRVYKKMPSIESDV
test summary: FLIPR calcium assay, quinolinic acid, gentamicin, dextromethadone (Example 5 Part II), GluN1-GluN2A-CHO
Type: cell-based
condition details: 10 μM glycine; fit with maximal response constrained at 75%; read-out: EC50
readout label: EC50 (µM)
Numeric answer only, unit µM assumed.

Query: Given the compound "O=C(O)c1cccnc1C(=O)O" , what is its reported EC50?
Response: 850

----------
Each entry below lists one item and its recorded L-glutamate CRC HillSlope value.
test target: human NMDA receptor GluN1-GluN2A (Homo sapiens, UniProt Q05586+Q12879)
Construct: expressed in transfected cells; host or cells: CHO
test summary: FLIPR calcium assay, test item effect on L-glutamate CRC, GluN1-GluN2A-CHO
Format: cell-based
condition details: with test item 50 μM
Counter-ions that a name gives are not always drawn.
Please state the value as a number alone, without comment.

> print(dat)
                                   molecule  obs.value
1  COc1ccc2c(c1)[C@]13CCCC[C@@H]1[C@H](C2)N(C)CC3 [Dextromethorphan, hydrobromide monohydrate]        1.3
2  CCC(=O)C(C[C@H](C)N(C)C)(c1ccccc1)c1ccccc1        1.4
3  CC12CC3CC(C)(C1)CC(N)(C3)C2 [Memantine, memantine hydrochloride]        1.6

Now let's try a different one.
Query: Consider the molecule CNC1(c2ccccc2Cl)CCCCC1=O (racemic) [(±)-Ketamine, (±)-ketamine hydrochloride] and give its measured L-glutamate CRC HillSlope.
Response: 1.9

----------
test target: human NMDA receptor GluN1-GluN2D (Homo sapiens, UniProt O15399+Q05586)
Construct: expressed in transfected cells; host or cells: CHO
Sequence (O15399 28-1336, other chains not shown): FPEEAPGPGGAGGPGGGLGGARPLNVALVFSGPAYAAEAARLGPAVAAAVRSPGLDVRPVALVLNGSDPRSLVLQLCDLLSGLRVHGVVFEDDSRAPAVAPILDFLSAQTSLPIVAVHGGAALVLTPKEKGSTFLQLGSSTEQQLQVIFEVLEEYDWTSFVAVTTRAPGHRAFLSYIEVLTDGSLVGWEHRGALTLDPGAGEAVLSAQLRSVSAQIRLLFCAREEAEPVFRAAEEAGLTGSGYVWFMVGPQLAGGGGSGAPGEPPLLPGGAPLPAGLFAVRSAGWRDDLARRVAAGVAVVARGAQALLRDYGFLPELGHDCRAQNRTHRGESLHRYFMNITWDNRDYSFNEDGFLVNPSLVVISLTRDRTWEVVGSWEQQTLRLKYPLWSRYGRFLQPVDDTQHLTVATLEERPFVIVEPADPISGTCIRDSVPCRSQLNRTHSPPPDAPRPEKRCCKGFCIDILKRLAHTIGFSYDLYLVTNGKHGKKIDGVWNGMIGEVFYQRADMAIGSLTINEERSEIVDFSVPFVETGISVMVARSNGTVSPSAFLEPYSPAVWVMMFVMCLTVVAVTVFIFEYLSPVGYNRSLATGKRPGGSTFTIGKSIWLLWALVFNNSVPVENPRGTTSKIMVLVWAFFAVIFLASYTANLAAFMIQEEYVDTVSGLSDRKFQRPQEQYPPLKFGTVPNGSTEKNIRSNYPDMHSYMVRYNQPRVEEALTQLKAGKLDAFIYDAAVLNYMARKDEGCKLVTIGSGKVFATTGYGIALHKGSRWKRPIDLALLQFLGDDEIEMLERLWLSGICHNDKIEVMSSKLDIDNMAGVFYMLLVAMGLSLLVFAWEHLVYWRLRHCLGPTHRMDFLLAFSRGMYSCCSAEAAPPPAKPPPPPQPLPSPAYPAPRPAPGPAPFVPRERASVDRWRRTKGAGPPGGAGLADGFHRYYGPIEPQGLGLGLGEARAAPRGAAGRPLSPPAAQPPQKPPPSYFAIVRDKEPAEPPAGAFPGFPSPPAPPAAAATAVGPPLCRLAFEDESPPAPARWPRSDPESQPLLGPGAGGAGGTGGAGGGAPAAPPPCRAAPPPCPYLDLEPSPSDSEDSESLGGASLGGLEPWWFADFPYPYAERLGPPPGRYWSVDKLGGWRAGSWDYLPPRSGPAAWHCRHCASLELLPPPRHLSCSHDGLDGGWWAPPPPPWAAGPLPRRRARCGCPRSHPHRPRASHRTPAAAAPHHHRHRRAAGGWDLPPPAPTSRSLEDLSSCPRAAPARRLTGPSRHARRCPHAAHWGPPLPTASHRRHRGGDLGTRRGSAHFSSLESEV
test summary: FLIPR calcium assay, quinolinic acid, gentamicin, dextromethadone (Example 5 Part II), GluN1-GluN2D-CHO
Type: cell-based
condition details: 10 μM glycine; read-out: EC50
readout label: EC50
// return the numeric value with its unit appended

Query: Quick one: EC50 for "O=C(O)c1cccnc1C(=O)O" ?
Response: 520 µM

----------
test target: human NMDA receptor GluN1-GluN2D (Homo sapiens, UniProt O15399+Q05586)
Construct: expressed in transfected cells; host or cells: CHO
test summary: FLIPR calcium assay, test item effect on L-glutamate CRC, GluN1-GluN2D-CHO
Format: cell-based
condition details: with test item 12.5 μM
Counter-ions that a name gives are not always drawn.
readout label: L-glutamate CRC LogEC50
Please give only the number in your answer, with no unit.

A selection of reference data follows.
> print(dat)
                                   compound  obs.value
1  CNC1(c2ccccc2Cl)CCCCC1=O (racemic) [(±)-Ketamine, (±)-ketamine hydrochloride]       −6.9
2  CCC(=O)C(C[C@H](C)N(C)C)(c1ccccc1)c1ccccc1       −7.1
3  CC12CC3CC(C)(C1)CC(N)(C3)C2 [Memantine, memantine hydrochloride]       −6.7

Query: Report L-glutamate CRC LogEC50 for COc1ccc2c(c1)[C@]13CCCC[C@@H]1[C@H](C2)N(C)CC3 [Dextromethorphan, hydrobromide monohydrate] tested on human NMDA receptor GluN1-GluN2D (Homo sapiens, UniProt O15399+Q05586).
Response: −7.1
